- tested_system: mouse Wnt3a (mouse, UniProt P27467 19-352)
- Sequence (P27467 19-352): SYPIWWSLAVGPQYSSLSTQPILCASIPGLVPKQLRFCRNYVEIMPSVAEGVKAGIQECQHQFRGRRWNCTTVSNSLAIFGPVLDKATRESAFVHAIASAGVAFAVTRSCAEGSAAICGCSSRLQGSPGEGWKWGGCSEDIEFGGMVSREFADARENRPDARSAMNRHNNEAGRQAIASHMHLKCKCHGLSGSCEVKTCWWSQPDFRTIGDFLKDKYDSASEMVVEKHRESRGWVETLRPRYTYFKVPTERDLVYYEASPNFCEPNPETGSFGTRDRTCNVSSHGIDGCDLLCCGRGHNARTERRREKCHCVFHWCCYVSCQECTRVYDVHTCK
- test_description: SPR
property_name: Kd (µM)
Only the number, expressed in µM, is required.

Sample WIF-1_(EGFs I-V) (human WIF-1 residues 178-346) (domain or fragment, UniProt Q9Y5W5 178-346, looked up) QQAECPGGCRNGGFCNERRICECPDGFHGPHCEKALCTPRCMNGGLCVTPGFCICPPGFYGVNCDKANCSTTCFNGGTCFYPGKCICPPGLEGEQCEISKCPQPCRNGGKCIGKSKCKCSKGYQGDLCSKPVCEPGCGAHGTCHEPNKCQCQEGWHGRHCNKRYEASLI — what was its Kd?
0.9

Sample WIF-1_(WD-EGFs I-III) (human WIF-1 residues 35-274) (domain or fragment, UniProt Q9Y5W5 35-274, looked up) SLYLWIDAHQARVLIGFEEDILIVSEGKMAPFTHDFRKAQQRMPAIPVNIHSMNFTWQAAGQAEYFYEFLSLRSLDKGIMADPTVNVPLLGTVPHKASVVQVGFPCLGKQDGVAAFEVDVIVMNSEGNTILKTPQNAIFFKTCQQAECPGGCRNGGFCNERRICECPDGFHGPHCEKALCTPRCMNGGLCVTPGFCICPPGFYGVNCDKANCSTTCFNGGTCFYPGKCICPPGLEGEQCE — what was its Kd?
3.21

Sample WIF-1WD (WIF domain of human Wnt inhibitory factor 1, residues 35-178) (domain or fragment, UniProt Q9Y5W5 35-178, looked up) SLYLWIDAHQARVLIGFEEDILIVSEGKMAPFTHDFRKAQQRMPAIPVNIHSMNFTWQAAGQAEYFYEFLSLRSLDKGIMADPTVNVPLLGTVPHKASVVQVGFPCLGKQDGVAAFEVDVIVMNSEGNTILKTPQNAIFFKTCQ — what was its Kd?
3.4
